These data points were gathered from PubChem BioAssay (Tox21).

This section presents molecules with their documented max response values.
experiment: qHTS RealTime-Glo MT Cell Viability Assay in HEK293 cells - 40 hour (AID 1224874); note: % is set by controls: 0 for no effect and ±100 for the full control effect; nearly all actives have a fitted effect of over 50% in size
condition parameters: RealTime-Glo luminescence; hits give low values
Results filed as inconclusive are left out.

molecule	max response, %
Nc1nc(-c2ccc([N+](=O)[O-])cc2)cs1	-14.1
CNc1c2c(nn1C)CCCC2	-3.57
CS(=O)(=O)c1ccc([C@@H](C[C@H]2CCC(=O)C2)C(=O)Nc2cnccn2)cc1Cl	0.0186
CCC(=O)OCc1ccc(OC)cc1	0.878
C1=CCC2CC=CC2C1 (stereo not drawn)	16.8
FC(F)(F)C(F)(F)C(F)(F)C(F)(F)CCI	-4.67
CC1C(C)(C)C2=C(C(=O)CCC2)C1(C)C (stereo not drawn)	-12.9
c1ccc(CCCc2ccncc2)cc1	-19.7
C=CCOC(=O)COCCC(C)C	-1.87
CC[C@H]1OC(=O)[C@H](C)[C@@H](O[C@H]2C[C@@](C)(OC)[C@@H](O)[C@H](C)O2)[C@H](C)[C@@H](O[C@@H]2O[C@H](C)C[C@H](N(C)C)[C@H]2O)[C@](C)(O)C[C@@H](C)/C(=N\OCOCCOC)[C@H](C)[C@@H](O)[C@]1(C)O	-15
COc1cc(S(=O)(=O)Nc2ccccc2)c(OC)cc1N	-20.8
O=C(O)c1cccc(C[C@@H]2COc3ccc(OCc4nc5cc(F)ccc5s4)cc3[C@@H]2O)c1	4.74
CC12CC3CC(C)(C1)CC(N)(C3)C2	3.93
CC(=O)NNC(C)=O	0.186
Cc1c[nH]c2ccccc12	17.2
Cc1cc(CCC(=O)OCCOCCOCCOC(=O)CCc2cc(C)c(O)c(C(C)(C)C)c2)cc(C(C)(C)C)c1O	6.66
CC(C)OC(=O)c1ccccc1C(=O)OC(C)C	-14
Cc1ccccc1S(N)(=O)=O	8.27
COC(OC)OC	11.5
Cc1ccc(NC(=O)N(C)C)cc1NC(=O)N(C)C	-1.73
O=C1[C@@H]2[C@H]3CC[C@H](C3)[C@@H]2C(=O)N1CCCCN1CCN(c2ncccn2)CC1	-0.051
CCN(Cc1cccc(S(=O)(=O)O)c1)c1ccc(C(=C2C=CC(=[N+](CC)Cc3cccc(S(=O)(=O)O)c3)C=C2)c2ccccc2S(=O)(=O)[O-])cc1	-0.266
O=C(O)c1cc(Cl)cc(Cl)c1O	-0.228
